- Organism: Rattus norvegicus
- EXPERIMENT: Open TG-GATES - Regimen: Single
- Type: toxicity, organism-based, Sprague-Dawley
- Parameters: regimen Single, gender Male, age 6 weeks
- EXPERIMENTAL_CONTEXT: in vivo, po, 0 mg/kg, 24 h, tissue Plasma, route gavage, dose level Control
Returns MET if the recorded LDH is greater than or equal to 200 IU/L, and NOT MET otherwise.

- MOLECULE: "CS(=O)(=O)Nc1ccc([N+](=O)[O-])cc1Oc1ccccc1 [NIMESULIDE]"
  CATEGORY_LABEL: "NOT MET"
- MOLECULE: "COc1ccc(Cl)cc1C(=O)NCCc1ccc(S(=O)(=O)NC(=O)NC2CCCCC2)cc1 [GLYBURIDE]"
  CATEGORY_LABEL: "NOT MET"
- MOLECULE: "C=CCO"
  CATEGORY_LABEL: "NOT MET"
- MOLECULE: "Cn1cnc([N+](=O)[O-])c1Sc1ncnc2nc[nH]c12"
  CATEGORY_LABEL: "MET"
- MOLECULE: "O=C1NC(=O)C(c2ccccc2)(c2ccccc2)N1"
  CATEGORY_LABEL: "NOT MET"

* * *

- Organism: Rattus norvegicus
- EXPERIMENT: Open TG-GATES - Regimen: Single
- Format: toxicity, organism-based, Sprague-Dawley
- Parameters: regimen Single, gender Male, age 6 weeks
- EXPERIMENTAL_CONTEXT: in vivo, po, 0 mg/kg, 3 h, tissue Plasma, route gavage, dose level Control
ASSAY_READOUT: TP (g/dL)

- COMPOUND: "C=CCO"
  ASSAY_READOUT: "TP"
  TEST_VALUE: 5.6
- COMPOUND: "O=C1NC(=O)C(c2ccccc2)(c2ccccc2)N1"
  ASSAY_READOUT: "TP"
  TEST_VALUE: 5.4
- COMPOUND: "Cc1cnc(NC(=O)C2=C(O)c3ccccc3S(=O)(=O)N2C)s1"
  ASSAY_READOUT: "TP"
  TEST_VALUE: 5.4
- COMPOUND: "CNCCC(Oc1ccc(C(F)(F)F)cc1)c1ccccc1.Cl (stereo unspecified) [FLUOXETINE HYDROCHLORIDE]"
  ASSAY_READOUT: "TP"
  TEST_VALUE: 5.7
- COMPOUND: "Cc1cccc(Nc2cc(Cl)nc(SCC(=O)O)n2)c1C"
  ASSAY_READOUT: "TP"
  TEST_VALUE: 5.6
- COMPOUND: "COc1ccc(Cl)cc1C(=O)NCCc1ccc(S(=O)(=O)NC(=O)NC2CCCCC2)cc1 [GLYBURIDE]"
  ASSAY_READOUT: "TP"
  TEST_VALUE: 5.6
- COMPOUND: "CS(=O)(=O)Nc1ccc([N+](=O)[O-])cc1Oc1ccccc1 [NIMESULIDE]"
  ASSAY_READOUT: "TP"
  TEST_VALUE: 5.3
- COMPOUND: "O=C1CN(/N=C/c2ccc(-c3ccc([N+](=O)[O-])cc3)o2)C(O)=N1"
  ASSAY_READOUT: "TP"
  TEST_VALUE: 5.3
- COMPOUND: "S=C=Nc1cccc2ccccc12 [1-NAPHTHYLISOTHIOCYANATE]"
  ASSAY_READOUT: "TP"
  TEST_VALUE: 5.5
- COMPOUND: "Cn1cnc([N+](=O)[O-])c1Sc1ncnc2nc[nH]c12"
  ASSAY_READOUT: "TP"
  TEST_VALUE: 5.5
- COMPOUND: "COc1ccc(O)c(C(C)(C)C)c1.COc1ccc(O)cc1C(C)(C)C [BUTYLATED HYDROXYANISOLE]"
  ASSAY_READOUT: "TP"
  TEST_VALUE: 5.6
